target: native human MET on living cells (human, UniProt P08581 25-1390); experiment: cell-based or functional assay
Sequence (P08581 25-1390): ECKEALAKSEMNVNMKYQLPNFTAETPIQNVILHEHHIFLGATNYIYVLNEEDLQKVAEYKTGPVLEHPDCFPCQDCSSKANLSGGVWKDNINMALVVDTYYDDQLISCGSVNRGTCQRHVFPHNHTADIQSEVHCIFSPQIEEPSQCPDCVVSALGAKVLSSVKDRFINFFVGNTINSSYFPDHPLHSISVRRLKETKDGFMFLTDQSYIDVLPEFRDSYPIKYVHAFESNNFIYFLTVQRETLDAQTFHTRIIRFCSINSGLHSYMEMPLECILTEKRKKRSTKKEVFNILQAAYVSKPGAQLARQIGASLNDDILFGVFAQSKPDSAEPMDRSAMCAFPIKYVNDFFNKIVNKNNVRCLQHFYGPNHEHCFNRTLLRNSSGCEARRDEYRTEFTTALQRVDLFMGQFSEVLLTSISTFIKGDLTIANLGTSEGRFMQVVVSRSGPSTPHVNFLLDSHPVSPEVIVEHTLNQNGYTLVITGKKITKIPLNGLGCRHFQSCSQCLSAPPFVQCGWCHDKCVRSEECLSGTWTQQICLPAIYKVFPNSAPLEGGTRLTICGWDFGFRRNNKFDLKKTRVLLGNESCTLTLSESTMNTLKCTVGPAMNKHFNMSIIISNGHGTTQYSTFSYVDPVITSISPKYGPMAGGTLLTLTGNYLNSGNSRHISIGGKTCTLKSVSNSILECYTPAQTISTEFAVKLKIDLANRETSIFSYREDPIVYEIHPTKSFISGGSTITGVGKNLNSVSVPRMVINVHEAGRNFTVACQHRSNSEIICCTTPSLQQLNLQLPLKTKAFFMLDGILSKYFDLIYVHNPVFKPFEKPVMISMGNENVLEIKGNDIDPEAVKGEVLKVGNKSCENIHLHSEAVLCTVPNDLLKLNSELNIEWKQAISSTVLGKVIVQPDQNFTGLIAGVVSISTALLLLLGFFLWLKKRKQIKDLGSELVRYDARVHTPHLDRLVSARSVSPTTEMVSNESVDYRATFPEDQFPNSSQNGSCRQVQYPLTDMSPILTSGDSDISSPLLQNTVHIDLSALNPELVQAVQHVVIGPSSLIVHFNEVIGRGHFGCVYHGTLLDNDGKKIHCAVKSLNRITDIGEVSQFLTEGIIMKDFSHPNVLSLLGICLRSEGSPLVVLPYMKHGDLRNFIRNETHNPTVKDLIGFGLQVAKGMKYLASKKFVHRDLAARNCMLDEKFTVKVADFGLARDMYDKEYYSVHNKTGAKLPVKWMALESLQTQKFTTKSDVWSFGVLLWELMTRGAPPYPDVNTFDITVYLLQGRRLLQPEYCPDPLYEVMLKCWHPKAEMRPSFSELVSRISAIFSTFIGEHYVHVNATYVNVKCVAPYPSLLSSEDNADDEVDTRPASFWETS
scatter score 0-4, HPAF-II, 0.333 nM overview
Enter your answer as a number in score; do not include the unit.

Would you kindly share the measured scatter score 0-4, HPAF-II, 0.333 nM for 71G3 chimeric llama-human IgG1 mAb (antibody, V domains shown, llama VH on human IgG1 CH1-CH2-CH3, llama VL on human lambda CL) VH: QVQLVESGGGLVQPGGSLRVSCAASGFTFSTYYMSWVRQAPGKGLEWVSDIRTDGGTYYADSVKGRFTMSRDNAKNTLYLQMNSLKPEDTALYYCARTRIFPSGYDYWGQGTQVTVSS VL: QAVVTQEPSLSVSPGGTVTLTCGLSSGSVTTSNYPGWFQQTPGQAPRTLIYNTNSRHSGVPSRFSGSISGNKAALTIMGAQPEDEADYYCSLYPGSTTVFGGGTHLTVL ?
4

Consider the record given below.
Would you kindly share the measured scatter score 0-4, HPAF-II, 0.333 nM for 71C3 chimeric llama-human IgG1 mAb (antibody, V domains shown, llama VH on human IgG1 CH1-CH2-CH3, llama VL on human lambda CL) VH: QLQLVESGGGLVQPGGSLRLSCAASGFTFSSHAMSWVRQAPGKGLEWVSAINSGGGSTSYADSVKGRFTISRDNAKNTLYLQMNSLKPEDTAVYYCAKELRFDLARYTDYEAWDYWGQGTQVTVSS VL: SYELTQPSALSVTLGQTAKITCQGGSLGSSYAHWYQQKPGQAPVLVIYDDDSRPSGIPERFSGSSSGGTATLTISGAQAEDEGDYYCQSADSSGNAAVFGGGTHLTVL ?
2

Source listed as patent US20210087281A1.
